# Test system: MDA-MB-231
# assay.protocol: cells
# measurement.context: Homo sapiens, MDA-MB-231, 72 h
measure.name: IC50

Nc1ccn([C@@H]2O[C@H](CO)[C@@H](O)C2(F)F)c(=O)n1 :: 30 to 100 nM

* * *

# tested.system: Ribonucleoside-diphosphate reductase large subunit (Homo sapiens)
# Sequence (P23921 whole entry): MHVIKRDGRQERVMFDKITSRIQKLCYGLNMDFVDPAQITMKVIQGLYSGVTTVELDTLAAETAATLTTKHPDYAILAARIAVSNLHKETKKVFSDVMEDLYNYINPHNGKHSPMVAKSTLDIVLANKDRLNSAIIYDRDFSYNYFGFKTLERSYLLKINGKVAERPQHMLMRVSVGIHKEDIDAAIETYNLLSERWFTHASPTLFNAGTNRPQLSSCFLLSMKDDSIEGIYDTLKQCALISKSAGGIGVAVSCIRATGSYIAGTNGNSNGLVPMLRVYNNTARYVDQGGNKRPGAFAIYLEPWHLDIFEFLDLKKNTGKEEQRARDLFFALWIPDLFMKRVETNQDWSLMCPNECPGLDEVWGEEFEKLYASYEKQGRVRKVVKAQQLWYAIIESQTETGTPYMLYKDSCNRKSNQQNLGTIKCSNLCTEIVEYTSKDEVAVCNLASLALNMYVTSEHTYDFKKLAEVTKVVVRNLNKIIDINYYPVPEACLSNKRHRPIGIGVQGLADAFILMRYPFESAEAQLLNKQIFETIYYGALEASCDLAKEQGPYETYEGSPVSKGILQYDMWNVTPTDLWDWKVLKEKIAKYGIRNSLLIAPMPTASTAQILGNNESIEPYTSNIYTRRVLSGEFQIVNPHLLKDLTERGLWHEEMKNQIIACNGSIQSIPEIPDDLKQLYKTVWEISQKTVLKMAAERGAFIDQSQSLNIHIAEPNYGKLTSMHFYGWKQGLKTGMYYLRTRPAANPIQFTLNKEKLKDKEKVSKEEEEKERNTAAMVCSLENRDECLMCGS
# assay.protocol: Inhibition of human RRM1 expressed in Escherichia coli BL21-codon plus(DE3)-RIL using [14C]-ADP as substrate after 3 mins by liquid scintillation counting method
pIC50: −log10 of the molar value.
measure.name: pIC50

O=S(=O)(Cc1ccccc1)N/N=C/c1c(O)ccc2ccccc12 :: 3.88
O=C(N/N=C/c1c(O)ccc2ccccc12)OCc1ccccc1 :: 3.92
COc1cc(/C=N/N=C/c2c(O)ccc3ccccc23)ccc1O :: 3.16

The measured values listed here are drawn from ChEMBL document CHEMBL4024782.
